Quick reference for growth among some molecules
System: HCT-15 colon
PROCEDURE_SUMMARY: NCI-60 one-dose screen, 48 h (100 = growth as untreated, 0 = no growth, -100 = all killed)
RECORDED_CONDITIONS: 10 µM
The panel holds about 83,000 compounds, 20% with a hit somewhere; the sample as a whole holds those more often.
Use % as the unit, but write only the number.

The following molecules have reported results that may help.
COc1ccc(C(=O)COc2ccc(NC(=O)Nc3ccc(Cl)c(C(F)(F)F)c3)cc2)cc1    8.56
Nc1nnc(-c2c[nH]c3ncc(Br)cc23)c(-c2c[nH]c3ccc(Br)cc23)n1    31.7
CC1[C@H]2[C@H](C[C@H]3[C@@H]4CC=C5c6sc(Nc7cccc(Cl)n7)nc6CC[C@]5(C)[C@H]4CC[C@@]32C)O[C@]12CC[C@@H](C)CO2 (some centres undefined)    73.9
Cc1cc(N=C2NC(=O)S/C2=C\c2ccc(F)cc2)n[nH]1    13.9
O=[N+]([O-])c1cccc(-c2nnc3c(/C=C/c4ccccc4O)nc4ccccc4n23)c1    52.5
COc1ccc(Cn2cc(C#N)c(N)c2C(C)=O)c(OC)c1    102
C#C[C@]1(O)CC[C@H]2[C@@H]3CC=C4c5sc(Nc6ccc(N(C)C)cc6)nc5CC[C@]4(C)[C@H]3CC[C@@]21C    -37.5
Fc1ccc(-c2csc(Nc3cccc(Nc4nc(-c5ccc(F)cc5)cs4)c3)n2)cc1    52.5

(Q) Report growth on HCT-15 colon for this entry: O=C(c1ccccc1)c1ccc2nc(-c3ccccc3Br)[nH]c2c1
(A) -37.7
